Field: pEC50. Provide a value for each of the compounds that follow.
Test system: FLC3 PDX cells
experimental details: Validation screen, 11-point dose response, 72 h, Cell Titer Glo
Type: cell-based, human
protocol conditions: Homo sapiens, 72 h, read-out: EC50 FLC
Give bare numbers, as −log10 of the molar value.

structure string | system name | reported
Cn1ncc(Cl)c1-c1cc(C(=O)N[C@H](CN)Cc2ccc(F)c(F)c2)oc1Cl | FLC3 PDX cells | 6.06

// moving on: another record for pEC50
The compound NC[C@@](O)(c1ccc(Cl)cc1)c1ccc(-c2cn[nH]c2)cc1 , tested on FLC3 PDX cells, showed pEC50 of 6.23
